Reference source: the RNAGym collection of RNA variant scans (doi:10.7554/elife.90254)

Below: a set of entries, each annotated with reported self-cleavage.
B1: LINE1-full (parent)
chain: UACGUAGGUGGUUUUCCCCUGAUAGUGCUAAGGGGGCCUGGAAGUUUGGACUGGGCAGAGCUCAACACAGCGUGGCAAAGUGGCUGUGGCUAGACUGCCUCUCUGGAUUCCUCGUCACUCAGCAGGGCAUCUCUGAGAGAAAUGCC

Variants of: B1
experiment_summary: self-cleavage, relative activity (ratio to wild type); higher = more cleavage; in vitro, sequencing; the parent is a self-cleaving ribozyme
# respond with the number and nothing more

Past entries and their recorded results:
Prompt line: Give reported self-cleavage value for C84U A124G
Response line: 0.11

Prompt line: Give reported self-cleavage value for U108C U115C
Response line: 1.86

Prompt line: Give reported self-cleavage value for U1C U100A
Response line: 0.69

Further cases:
Prompt line: Give reported self-cleavage value for U15A A24G
Response line: 0.49
